src = patent US20220387487A1

System: FMC63
Sequence (as listed by the source): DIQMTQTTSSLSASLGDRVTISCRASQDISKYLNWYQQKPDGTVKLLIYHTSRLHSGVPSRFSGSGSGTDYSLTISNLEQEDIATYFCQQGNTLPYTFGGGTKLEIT
Sequence (as listed by the source): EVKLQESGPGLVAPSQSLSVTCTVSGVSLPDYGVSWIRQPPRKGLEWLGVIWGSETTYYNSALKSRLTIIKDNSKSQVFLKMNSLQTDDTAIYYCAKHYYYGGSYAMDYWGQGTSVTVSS
Protocol: CD19 variant binding to anti-CD19 antibody FMC63 (score)
Assay conditions: Table 1B, CD19 triple mutants

# Molecule, FMC63 Binding Score
data = [
    ("W62R/F64V/F66R: CD19 variant (protein) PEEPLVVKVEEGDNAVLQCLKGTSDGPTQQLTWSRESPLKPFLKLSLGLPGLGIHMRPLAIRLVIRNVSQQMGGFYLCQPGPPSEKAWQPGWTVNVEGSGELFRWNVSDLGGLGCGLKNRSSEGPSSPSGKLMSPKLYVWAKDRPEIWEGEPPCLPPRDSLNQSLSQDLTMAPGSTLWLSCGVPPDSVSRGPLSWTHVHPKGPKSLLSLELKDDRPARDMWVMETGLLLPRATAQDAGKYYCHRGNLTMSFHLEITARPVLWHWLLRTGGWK", 12.3),
]
